Reference for the values: patent US20240368139A1

# maps each entry to its pIC50
target: hERG potassium channels (Homo sapiens, UniProt Q12809); assay: In vitro hERG assay (SyncroPatch whole-cell recording); settings: hERG IC50, CHO cells stably expressing hERG, room temperature
Sequence (Q12809 whole entry): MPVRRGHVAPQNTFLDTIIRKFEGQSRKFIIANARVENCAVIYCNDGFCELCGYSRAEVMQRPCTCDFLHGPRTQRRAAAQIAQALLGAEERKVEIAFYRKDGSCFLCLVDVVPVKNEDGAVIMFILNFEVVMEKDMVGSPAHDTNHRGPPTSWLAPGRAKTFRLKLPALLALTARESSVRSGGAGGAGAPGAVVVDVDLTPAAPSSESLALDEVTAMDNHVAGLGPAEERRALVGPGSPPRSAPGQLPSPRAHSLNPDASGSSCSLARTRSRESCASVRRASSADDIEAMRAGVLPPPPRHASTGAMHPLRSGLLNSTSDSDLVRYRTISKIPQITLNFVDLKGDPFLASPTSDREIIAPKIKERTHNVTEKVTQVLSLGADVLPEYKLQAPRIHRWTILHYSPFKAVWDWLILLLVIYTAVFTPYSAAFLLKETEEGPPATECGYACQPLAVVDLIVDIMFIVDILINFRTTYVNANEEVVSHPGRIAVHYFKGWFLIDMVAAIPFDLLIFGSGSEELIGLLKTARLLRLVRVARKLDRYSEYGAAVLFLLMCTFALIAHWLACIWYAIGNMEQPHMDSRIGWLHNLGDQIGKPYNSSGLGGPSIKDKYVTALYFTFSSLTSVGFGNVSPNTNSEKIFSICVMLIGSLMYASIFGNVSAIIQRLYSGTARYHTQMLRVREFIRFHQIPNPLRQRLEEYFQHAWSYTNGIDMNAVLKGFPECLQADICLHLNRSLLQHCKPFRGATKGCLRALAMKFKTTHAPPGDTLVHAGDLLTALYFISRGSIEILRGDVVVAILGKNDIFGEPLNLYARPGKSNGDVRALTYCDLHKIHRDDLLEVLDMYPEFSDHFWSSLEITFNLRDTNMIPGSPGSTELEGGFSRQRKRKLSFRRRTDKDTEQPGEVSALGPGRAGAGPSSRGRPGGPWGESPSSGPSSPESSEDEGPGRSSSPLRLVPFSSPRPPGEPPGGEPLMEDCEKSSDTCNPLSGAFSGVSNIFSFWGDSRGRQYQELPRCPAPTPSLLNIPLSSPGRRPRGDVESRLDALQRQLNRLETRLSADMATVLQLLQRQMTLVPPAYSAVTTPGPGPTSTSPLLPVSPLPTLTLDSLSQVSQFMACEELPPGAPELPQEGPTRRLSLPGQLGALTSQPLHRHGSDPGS
pIC50: −log10 of the molar value.
parameterMeasured: pIC50

molecule="CNc1cc(C)nc(Nc2cc3c(c(C4=CCNCCC4)c2F)OCC3)n1 [Compound 291]" parametermeasured=pIC50 reading="< 5.00"
molecule="CNc1cc(C)nc(Nc2ccc(OC)c(C3=CCNCCC3)c2)n1 [Reference Compound B, reference compound]" parametermeasured=pIC50 reading="5.00 to 5.30"
molecule="CNc1cc(C)nc(Nc2ccc(OC)c(C3=CCN(C)CCC3)c2)n1 [Reference Compound A, reference compound]" parametermeasured=pIC50 reading="5.00 to 5.30"
molecule="CNc1cc(C)nc(Nc2cc3c(c(C4=CCN(C)CCC4)c2)OCC3)n1 [Compound 111]" parametermeasured=pIC50 reading="< 5.00"
molecule="CNc1cc(C)nc(Nc2cc3c(c(C4=CCNCCC4)c2)OCC3)n1 [Compound 110]" parametermeasured=pIC50 reading="< 5.00"

* * *

# maps each entry to its pIC50
tested on: H3K9me2 in HCT116 cells; test: HCT116 H3K9me2 in-cell western assay; format: cell-based; details: Homo sapiens, HCT-116, 72 h, HCT116 cells, 72 hours incubation; read-out: H3K9me2 ICW IC50
pIC50: −log10 of the molar value.
parameterMeasured: pIC50

recordsmiles=CNc1cc(C)nc(Nc2cc3c(c(C4=CCNCCC4)c2O)OCC3)n1 reading="6.30 to 7.00"
recordsmiles=CNc1cc(C)nc(Nc2cc3c(c(OCCCN4CCCC4)c2)OCC(=O)N3)n1 reading="< 5.70"
recordsmiles=CNc1cc(C)nc(Nc2cc3c(c(C4=CCNCCC4)c2)OC(F)(F)O3)n1 reading="6.30 to 7.00"
recordsmiles=CNc1cc(C)nc(Nc2cc3c(c(C4=CCN(C)CCC4)c2)OCC3)c1 reading="6.30 to 7.00"
recordsmiles=CNc1nc(Nc2cc3c(c(C4=CCN(C)CCC4)c2)OCC3)nc(C)c1C reading="6.30 to 7.00"

* * *

target: human EHMT2 913-1193 (Homo sapiens, UniProt Q96KQ7); assay: EHMT2 enzyme assay on histone peptide substrate (3H-SAM SPA); settings: EHMT2 IC50, recombinant human EHMT2 913-1193, histone peptide substrate
Sequence (Q96KQ7 913-1193): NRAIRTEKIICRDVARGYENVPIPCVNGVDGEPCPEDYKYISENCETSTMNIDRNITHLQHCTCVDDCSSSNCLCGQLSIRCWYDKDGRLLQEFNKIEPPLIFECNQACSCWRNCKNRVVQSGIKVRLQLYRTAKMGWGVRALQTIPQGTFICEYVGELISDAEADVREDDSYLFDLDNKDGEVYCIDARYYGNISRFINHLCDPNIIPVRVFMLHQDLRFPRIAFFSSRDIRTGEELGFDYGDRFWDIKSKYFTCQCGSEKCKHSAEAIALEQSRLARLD
parameterMeasured: IC50

compound="CNc1cc(C)nc(Nc2cc3c(c(C4=CCN(C)CCC4)c2F)OCC32CC2)n1 [Compound 171]" targetentity="human EHMT2 913-1193 (Homo sapiens, UniProt Q96KQ7)" reading="100 to 500 nM"
compound="[2H]C([2H])([2H])Nc1nc(Nc2cc3c(c(C4=CCNCCC4)c2F)OCC3)nc(C)c1F [Compound 256]" targetentity="human EHMT2 913-1193 (Homo sapiens, UniProt Q96KQ7)" reading="< 100 nM"
compound="COCCNc1cc(C)nc(Nc2cc3c(c(C4=CCN(C)CCC4)c2)OCC3)n1 [Compound 324]" targetentity="human EHMT2 913-1193 (Homo sapiens, UniProt Q96KQ7)" reading="100 to 500 nM"
compound="CNc1cc(C)nc(Nc2cc(OCCCN3CCCC3)c3c(c2)OCCO3)n1 [Compound 122]" targetentity="human EHMT2 913-1193 (Homo sapiens, UniProt Q96KQ7)" reading="100 to 500 nM"

* * *

tested on: H3K9me2 in HCT116 cells; assay: HCT116 H3K9me2 in-cell western assay; assay type: cell-based; details: Homo sapiens, HCT-116, 72 h, HCT116 cells, 72 hours incubation; read-out: H3K9me2 ICW IC50
pIC50: −log10 of the molar value.
# maps each entry to its pIC50
parameterMeasured: pIC50

molecule=CNc1cc(C)nc(Nc2cc3c(c(C4=CCN(C)CCC4)c2F)OCCC3)n1 targetentity="H3K9me2 in HCT116 cells" parametermeasured=pIC50 reading="> 7.00"
molecule=CCN1CC=C(c2c(F)c(Nc3nc(C)cc(NC)n3)cc3c2OCC3)CCC1 targetentity="H3K9me2 in HCT116 cells" parametermeasured=pIC50 reading="> 7.00"
molecule=CCNc1cc(C)nc(Nc2cc3c(c(C4=CCN(C)CCC4)c2)OCC3)n1 targetentity="H3K9me2 in HCT116 cells" parametermeasured=pIC50 reading="6.30 to 7.00"
molecule=[2H]Cc1nc(Nc2cc3c(c(C4=CCN(C)CCC4)c2F)OCC3)nc(NCC([2H])([2H])[2H])c1F targetentity="H3K9me2 in HCT116 cells" parametermeasured=pIC50 reading="6.30 to 7.00"
molecule=Cc1cc(NCC(F)(F)F)nc(Nc2cc3c(c(C4=CCN(C)CCC4)c2)OCC3)n1 targetentity="H3K9me2 in HCT116 cells" parametermeasured=pIC50 reading="6.30 to 7.00"
molecule=CNc1cc(C)nc(Nc2cc3c(c(N4C[C@H]5CNC[C@H]5C4)c2)OCC3)n1 targetentity="H3K9me2 in HCT116 cells" parametermeasured=pIC50 reading="5.70 to 6.30"
molecule="CNc1cc(C)nc(Nc2cc3c(c(C4=CCN(C)CC(O)C4)c2C)OCC3)n1 (single isomer, unassigned)" targetentity="H3K9me2 in HCT116 cells" parametermeasured=pIC50 reading="6.30 to 7.00"
molecule=CNc1cc(C)nc(Nc2cc3c(c(N4CCCNCC4)c2)OCCC3)n1 targetentity="H3K9me2 in HCT116 cells" parametermeasured=pIC50 reading="6.30 to 7.00"

* * *

Target: human EHMT1 982-1266 (Homo sapiens, UniProt Q9H9B1)
Sequence (Q9H9B1 982-1266): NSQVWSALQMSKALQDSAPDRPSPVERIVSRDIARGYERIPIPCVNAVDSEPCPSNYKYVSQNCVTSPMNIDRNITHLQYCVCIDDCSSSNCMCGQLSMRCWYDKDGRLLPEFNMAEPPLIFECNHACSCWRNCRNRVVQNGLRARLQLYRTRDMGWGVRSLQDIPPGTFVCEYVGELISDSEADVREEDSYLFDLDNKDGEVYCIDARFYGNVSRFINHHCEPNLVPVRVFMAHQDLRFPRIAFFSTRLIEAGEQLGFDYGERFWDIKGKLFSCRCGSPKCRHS
Test: EHMT1 enzyme assay on histone peptide substrate (3H-SAM SPA)
Settings: EHMT1 IC50, recombinant human EHMT1 982-1266, histone peptide substrate
# maps each entry to its IC50
parameterMeasured: IC50

molecule="CNc1cc(C)nc(Nc2cc3c(c(C4=CCNCC(OC)C4)c2F)OCC3)n1 (single isomer, unassigned) [Compound 366]" targetentity="human EHMT1 982-1266 (Homo sapiens, UniProt Q9H9B1)" reading="0.1 to 0.5 µM"
molecule=[2H]Cc1nc(Nc2cc3c(c(C4=CCN(C)CCC4)c2F)OCC3)nc(NC([2H])([2H])[2H])c1F targetentity="human EHMT1 982-1266 (Homo sapiens, UniProt Q9H9B1)" reading="0.1 to 0.5 µM"
molecule=CNc1cc(C)nc(Nc2cc3c(c(C4=CCN(C)CCC4)c2F)OCCC3)n1 targetentity="human EHMT1 982-1266 (Homo sapiens, UniProt Q9H9B1)" reading="< 0.1 µM"
molecule="CNc1cc(C)nc(Nc2cc3c(c(C4=CCNC(C)CC4)c2C)OCCC3)n1 (single isomer, unassigned) [Compound 385]" targetentity="human EHMT1 982-1266 (Homo sapiens, UniProt Q9H9B1)" reading="< 0.1 µM"

* * *

target: human EHMT1 982-1266 (Homo sapiens, UniProt Q9H9B1); experiment: EHMT1 enzyme assay on histone peptide substrate (3H-SAM SPA); details: EHMT1 IC50, recombinant human EHMT1 982-1266, histone peptide substrate
parameterMeasured: IC50

compound="[2H]C([2H])([2H])Nc1nc(Nc2cc3c(c(C4=CCNCCC4)c2)OCO3)nc(C)c1F [Compound 275]" parametermeasured=IC50 reading="100 to 500 nM"
compound="CNc1cc(Nc2cc3c(c(C4=CCNCCC4)c2F)OCCC3)nc(C)c1F [Compound 243]" parametermeasured=IC50 reading="< 100 nM"
compound="CNc1cc(C)nc(Nc2cc3c(c(C4=CCNCCC4)c2Cl)OCCO3)n1 [Compound 166]" parametermeasured=IC50 reading="< 100 nM"
compound="CNc1cc(C)nc(Nc2cc3c(c(C4=CCNCC4)c2)OCC3)n1 [Compound 155]" parametermeasured=IC50 reading="100 to 500 nM"
compound="CNc1cc(C)nc(Nc2cc3c(c(C4=CCNC(C(F)F)CC4)c2F)OCC3)n1 (single isomer, unassigned) [Compound 354]" parametermeasured=IC50 reading="< 100 nM"
compound="CNc1cc(C)nc(Nc2cc3c(c(C4CCCNCC4)c2)OCC3)n1 (centres unmarked) [Compound 106]" parametermeasured=IC50 reading="500 to 2000 nM"
compound="CCNc1nc(Nc2cc3c(c(C4=CCNCCC4)c2F)OCC3)nc(C)c1F [Compound 239]" parametermeasured=IC50 reading="< 100 nM"
compound="COCCNc1cc(C)nc(Nc2cc3c(c(C4=CCN(C)CCC4)c2)OCC3)c1 [Compound 297]" parametermeasured=IC50 reading="100 to 500 nM"
